System: Human hepatoma PLC/PRF/5 cells
Test: Photodynamic damage (PDD), survival rate of cells versus concentration after irradiation
Type: cell-based
Details: irradiation dose of 96 kJ/m^2; read-out: EC50 value
Source text: A stands for (P10)-insulin-(chlorin e6); B stands for (β-galactosidase)-insulin-(chlorin e6); C stands for chlorin e6; […] Survival rate of human hepatoma PLC/PRF/5 cells plotted against concentration of compositions and chlorin e6 is depicted in FIGS. 2 and 3.
readout_type: EC50 (nM)
Answer with a number only, understood to be in nM.

Ask: Look up and report measured EC50 for this entry: C=Cc1c(C)c2cc3nc(c(CC(=O)O)c4[nH]c(cc5nc(cc1[nH]2)C(C)=C5CC)c(C)c4C(=O)O)[C@@H](CCC(=O)O)[C@@H]3C
Reply: 350
